- Test system: wild-type ZIKV (Ugandan MR766 strain) in Vero cells
- measurement-protocol: ZIKV cytopathic effect (CPE) inhibition qHTS assay, CellTiter-Glo readout
- Assay type: cell-based, Zika virus
Label 1 (yes) for high-side Efficacy (at or above -40) and 0 (no) for low-side Efficacy (below it).

Please tell me: is the compound CC1=CC(=O)[C@@H](O)[C@]2(C)C3[C@@H](O)[C@@H]4OC(=O)[C@@H]([C@H]4C)[C@]3(C)C(=O)C[C@@H]12 (some centres unmarked) [NCGC00384574-01] at or over -40 in terms of Efficacy?
0 (no)

Please tell me: is the compound C[C@@H]1O[C@@H](O[C@H]2[C@H](O[C@H]3[C@H](O)[C@@H](C(=O)O)O[C@@H](O[C@H]4CC[C@@]5(C)C(CC[C@]6(C)C5CC[C@]57OC[C@@]8(CCC(C)(C)CC85)[C@H](O)C[C@]76C)C4(C)C)[C@@H]3O[C@@H]3O[C@H](CO)[C@@H](O[C@@H]4OC[C@@H](O)[C@H](O)[C@H]4O)[C@H](O)[C@H]3O)O[C@H](CO)[C@H](O)[C@@H]2O)[C@H](O)[C@H](O)[C@H]1O (some centres unmarked) [NCGC00384492-01] at or over -40 in terms of Efficacy?
1 (yes)

Please tell me: is the compound COc1cc2occc2c(O[C@@H]2O[C@H](CO)[C@@H](O)[C@H](O)[C@H]2O)c1CCC(=O)O [NCGC00168932-02] at or over -40 in terms of Efficacy?
0 (no)

Please tell me: is the compound O=c1c2ccccc2nc2n1CCc1c-2[nH]c2ccccc12 [NCGC00015892-08] at or over -40 in terms of Efficacy?
1 (yes)

Please tell me: is the compound CN1CCC(COc2cnc(-c3cccc(Cn4nc(-c5cccc(C#N)c5)ccc4=O)c3)nc2)CC1 [NCGC00345793-08] at or over -40 in terms of Efficacy?
1 (yes)

###

Assign CC50 to each entry below.
- measurement-protocol: in vitro
- reported-conditions: human

Look up CC50 of COc1c(C(C)C)cc2c(c1O)[C@@]1(C(=O)O)CCCC(C)(C)C1CC2 (stereo partly shown) and report it.
12.5 µM

Look up CC50 of CC1(C)CC2C(O)C3=C(CC(C)(O)C2C1)C(=O)OC3 (stereo not shown) and report it.
> 30 µM

Look up CC50 of COC(=O)[C@]12CCCC(C)(C)C1CCc1cc(C(C)C)c(O)c(O)c12 (stereo partly shown) and report it.
> 30 µM

Look up CC50 of Nc1ccn([C@@H]2O[C@H](CO)[C@@H](O)C2(F)F)c(=O)n1 [NCGC00168784-08, gemcitabine, reference compound] and report it.
> 30 µM

###

Assign Selectivity Index DENV (CC50/EC50) to each entry below.

Report value: Selectivity Index DENV (CC50/EC50), system: DENV (Dengue virus type 2, strain New Guinea C), compound: `Cc1[nH]c2ccccc2c1C1=C(NCCc2ccc(F)cc2)C(=O)N(C)C1=O`
24

Report value: Selectivity Index DENV (CC50/EC50), system: DENV (Dengue virus type 2, strain New Guinea C), compound: `C=C(C)[C@@]12O[C@@H]1[C@@]1(C)C(=CC2=O)CC[C@@H](OC(C)=O)[C@@H]1C`
14

Report value: Selectivity Index DENV (CC50/EC50), system: DENV (Dengue virus type 2, strain New Guinea C), compound: OC1C=C2C3CN(Cc4cc5c(cc43)OCO5)C2CC1O (stereo not shown)
16

Report value: Selectivity Index DENV (CC50/EC50), system: DENV (Dengue virus type 2, strain New Guinea C), compound: `CCC[S+](=O)([O-])Nc1ccc(F)c(C(=O)c2c[nH]c3ncc(-c4ccc(Cl)cc4)cc23)c1F`
4

###

- Tested on: wild-type ZIKV (Ugandan MR766 strain) in Vero cells
- measurement-protocol: ZIKV cytopathic effect (CPE) inhibition qHTS assay, CellTiter-Glo readout
- Assay type: cell-based, Zika virus
*1 amine or outer side, *2 acyl side, *3 side chain or, on linkers, in order; H or OH if unused. Where a SMILES comes first, the peptide text is derived from it. [ ]: non-standard residue; d: D form. The star is where a group is joined. ξ: configuration not given here. X2 = CCC(C)(N*)C(=O)C1CC[C@@H](C(=O)N[CH]Cc2ccccc2)N1; X1 = O=C([C@@H]1CC(O)CN1[*:1])[*:2]; aIle = CC[C@@H](C)[C@H](N)C(=O)O; ξLac(3-iPr) = CC(C)CC(O)C(=O)O; Thr(3ξ) = CC(O)[C@H](N)C(=O)O; NMeV = CN[CH](C(=O)O)C(C)C; NMeA = CN[CH](C)C(=O)O; ξIva = CCC(C)(N)C(=O)O; Aib = CC(C)(N)C(=O)O; βAla = NCCC(=O)O
Label criterion met for high-side Efficacy (at or above -30) and criterion not met for low-side Efficacy (below it).

Please tell me: is the molecule `Nc1c([S+](=O)([O-])c2ccccc2)c2nc3ccccc3nc2n1-c1ccc(F)cc1` at or over -30 in terms of Efficacy?
criterion met

Please tell me: is the molecule `Cc1[nH]c2ccccc2c1C1=C(NCCc2ccc(F)cc2)C(=O)N(C)C1=O` at or over -30 in terms of Efficacy?
criterion not met

Please tell me: is the molecule CC1OC(OC2C(OC(=O)[C@]34CCC(C)(C)C[C@H]3C3=CCC5[C@@]6(C)CC[C@H](OC7OC(C(=O)O)C(O)C(O)C7O)C(C)(C)C6CC[C@@]5(C)[C@]3(C)CC4O)OC(CO)C2O)C(O)C(O)C1OC1OCC(O)C(O)C1O (stereo partly shown) at or over -30 in terms of Efficacy?
criterion not met

Please tell me: is the molecule COc1cc2c(cc1O)C(c1ccc(O)cc1)C(C)C(C)C2 (stereo not shown) at or over -30 in terms of Efficacy?
criterion not met

Please tell me: is the molecule CC1=CC2/C=C(\C)CCC(O)C3OC(C)(C)OC3CC(=O)OC23C(=O)NC(CC(C)C)C3C1C (stereo not shown) at or over -30 in terms of Efficacy?
criterion not met

Please tell me: is the molecule CCC(C)C1NC(=O)C2CCCN2C(=O)C(CC(C)C)OC(=O)CCNC(=O)C(C)N(C)C(=O)C(C(C)C)N(C)C1=O (stereo not shown) [NCGC00169957-03] (cyclo([ξLac(3-iPr)]PI[NMeV][NMeA][βAla]); configuration not given here) at or over -30 in terms of Efficacy?
criterion not met

Please tell me: is the molecule CN(C)CC1CCn2c(c(C3=C(c4cn(C)c5ccccc45)C(=O)NC3=O)c3ccccc32)C1 (stereo not shown) at or over -30 in terms of Efficacy?
criterion met

Please tell me: is the molecule `CCCNc1ccc2ncc(-c3ccc4[nH]ncc4c3)n2n1` at or over -30 in terms of Efficacy?
criterion not met

Please tell me: is the molecule `C/C=C/c1ccc2oc(-c3ccc(O)c(OC)c3)c(C)c2c1` at or over -30 in terms of Efficacy?
criterion not met

Please tell me: is the molecule COc1ccc(CC2C(=O)NC(C)C(=O)N(C)C3Cc4ccc(cc4)Oc4cc(ccc4OC4OC(CO)C(O)C(O)C4O)CC(C(=O)NC(C)C(=O)NC(CCC(=O)O)C(=O)N2C)N(C)C3=O)cc1 (stereo not shown) at or over -30 in terms of Efficacy?
criterion not met

Please tell me: is the molecule `C[C@H]1CCC[C@H](O)CCC/C=C/c2cc(O)cc(O)c2C(=O)O1` at or over -30 in terms of Efficacy?
criterion not met

Please tell me: is the molecule `CC1(C)C=CN2C(=O)C3=CCCN3C(=O)[C@@H]2C[C@@]12Nc1ccccc1C2=O` at or over -30 in terms of Efficacy?
criterion met

Please tell me: is the molecule `C=C(C)C(=O)O[C@H]1[C@@H]2[C@H](C)C(=O)O[C@@H]2C[C@@H](C)[C@@H]2C=CC(=O)[C@]21C` at or over -30 in terms of Efficacy?
criterion not met

Please tell me: is the molecule CC1=CC[C@]2(C(=O)O[C@@H]3O[C@H](CO[C@@H]4O[C@H](CO)[C@@H](O[C@@H]5O[C@@H](C)[C@H](O)[C@@H](O)[C@H]5O)[C@H](O)[C@H]4O)[C@@H](O)[C@H](O)[C@H]3O)CC[C@]3(C)C(CCC4[C@@]5(C)C[C@@H](O)[C@H](O)[C@@](C)(CO)C5CC[C@]43C)C2C1C (stereo partly shown) at or over -30 in terms of Efficacy?
criterion not met

Please tell me: is the molecule CC1CCC2C(C)(C)C(O)CCC2(C)C12Cc1c(O)cc3c(c1O2)CNC3=N (stereo not shown) at or over -30 in terms of Efficacy?
criterion not met

Please tell me: is the molecule CC[C@@H](C)[C@H](NC(=O)C(C)(C)NC(=O)[C@H](CCC(N)=O)NC(=O)C(C)(CC)NC(=O)[C@H](Cc1c[nH]c2ccccc12)NC(C)=O)C(=O)N[C@H](C(=O)NC(C)(C)C(=O)N[C@@H](CC(C)C)C(=O)NC(C)(C)C(=O)N1CCC[C@H]1C(=O)N[C@@H](CCC(N)=O)C(=O)NC(C)(C)C(=O)N1CC(O)C[C@H]1C(=O)NC(C)(CC)C(=O)C1CC[C@@H](C(=O)N[CH]Cc2ccccc2)N1)C(C)O (stereo partly shown) [NCGC00385349-01] (Ac-W[ξIva]Q[Aib][aIle][Thr(3ξ)][Aib]L[Aib]PQ[Aib][X1]-X2) at or over -30 in terms of Efficacy?
criterion not met

Please tell me: is the molecule `COc1ccc2cc1Oc1ccc(cc1)C[C@H]1c3c(cc4c(c3Oc3cc5c(cc3OC)CCN(C)[C@@H]5C2)OCO4)CCN1C` at or over -30 in terms of Efficacy?
criterion not met

Please tell me: is the molecule `CC(C)c1c(O)ccc2c1CC[C@H]1C(C)(C)CCC[C@]21C` at or over -30 in terms of Efficacy?
criterion not met

Please tell me: is the molecule `C=C[C@H]1[C@H](O[C@@H]2O[C@H](CO)[C@@H](O)[C@H](O)[C@H]2O)OC=C(C(=O)OC)[C@H]1CCO` at or over -30 in terms of Efficacy?
criterion not met

Please tell me: is the molecule CC1CCC2(C(=O)OC3OC(CO)C(O)C(O)C3O)CCC3(C)C(=CCC4C5(C)CCC(O)C(C)(CO)C5CCC43C)C2C1(C)O (stereo not shown) at or over -30 in terms of Efficacy?
criterion not met

Please tell me: is the molecule CC1(C)CC[C@]2(C(=O)O)CC[C@]3(C)C(=CC[C@@H]4[C@@]5(C)CC[C@H](O[C@@H]6O[C@H](C(=O)O)[C@@H](O)[C@H](O)[C@H]6O)C(C)(C)[C@@H]5CC[C@]43C)[C@@H]2C1 [NCGC00384528-01, Calenduloside E] at or over -30 in terms of Efficacy?
criterion met
